We begin with a simple list: items and their reported activation.
- system name: Integrin beta-2 (Homo sapiens) + Integrin alpha-M (Homo sapiens) (UniProt P05107+P11215)
- Sequence (P05107 whole entry, looked up, other chains not shown): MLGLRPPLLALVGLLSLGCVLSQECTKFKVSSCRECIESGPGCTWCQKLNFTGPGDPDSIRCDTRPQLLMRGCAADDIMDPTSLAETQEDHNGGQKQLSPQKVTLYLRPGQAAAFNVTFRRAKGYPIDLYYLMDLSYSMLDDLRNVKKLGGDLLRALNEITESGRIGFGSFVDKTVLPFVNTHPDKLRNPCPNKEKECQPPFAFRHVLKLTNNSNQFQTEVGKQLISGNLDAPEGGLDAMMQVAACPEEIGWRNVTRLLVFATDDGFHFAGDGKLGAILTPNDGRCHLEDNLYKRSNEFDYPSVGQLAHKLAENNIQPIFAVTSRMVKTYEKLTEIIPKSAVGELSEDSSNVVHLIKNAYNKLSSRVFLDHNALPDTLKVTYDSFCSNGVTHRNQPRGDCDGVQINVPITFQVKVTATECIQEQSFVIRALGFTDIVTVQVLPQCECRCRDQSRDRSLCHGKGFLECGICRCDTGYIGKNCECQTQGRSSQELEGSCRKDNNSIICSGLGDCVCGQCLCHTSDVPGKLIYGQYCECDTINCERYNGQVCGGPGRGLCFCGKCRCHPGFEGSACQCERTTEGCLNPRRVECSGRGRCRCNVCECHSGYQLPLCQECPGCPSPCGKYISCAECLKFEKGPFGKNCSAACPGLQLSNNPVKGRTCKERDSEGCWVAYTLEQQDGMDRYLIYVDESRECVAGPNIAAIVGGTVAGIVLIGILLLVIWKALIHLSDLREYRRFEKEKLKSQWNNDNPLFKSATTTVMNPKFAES
- experiment notes: enhancers of CD11b/CD18 adhesion to fibrinogen, primary screen, K562 cells, luminescence (AID 1499)
- conditions: ATPlite luminescence, at 10 µM, active compounds read high
The campaign covered roughly 93,000 compounds. About 65 (0.07%) were called active. Many of the other results were omitted from the sample, so actives are more common in it than they were.
Give the value in % but do not write % after it.

Solved entries:
Return the recorded activation value; entry: "COc1ccccc1OCCC(=O)OCC(=O)NCc1ccccc1"
3.3

Return the recorded activation value; entry: "O=C(Nc1ccccc1Cl)c1ccccc1S(=O)(=O)c1ccccc1[N+](=O)[O-]"
1

New cases:
Return the recorded activation value; entry: "CC(C)NC(=S)N1CCN(S(C)(=O)=O)CC1"
0.6

Return the recorded activation value; entry: "Cc1ccc(O)c(CCc2ccccc2)n1"
-3.8

Return the recorded activation value; entry: "O=C(COC(=O)c1ccc(Cl)nc1)NCc1ccc2c(c1)OCO2"
4

----------
- system name: Integrin beta-2 (Homo sapiens) + Integrin alpha-M (Homo sapiens) (UniProt P05107+P11215)
- experiment notes: enhancers of CD11b/CD18 adhesion to fibrinogen, primary screen, K562 cells, luminescence (AID 1499)
- conditions: ATPlite luminescence, at 10 µM, active compounds read high
In all, about 93,000 compounds went through this assay and about 65 (0.07%) were called active. What follows is part of a selection rich in actives, with near analogues and random picks from the rest.
We begin with a simple list: items and their reported activation.
Give the value in % but do not write % after it.

Solved entries:
Return the recorded activation value; entry: "CCCn1c(C)cc(/C=C(\C#N)C(=O)OCC(=O)Nc2cc(OC)c(OC)c(OC)c2)c1C"
3

Return the recorded activation value; entry: "COc1cc(OC)c(C(=O)Nc2ccccc2-c2ccccc2)cc1OC"
6.2

Return the recorded activation value; entry: CC(NC(=S)Nc1ccccc1)C1COc2ccccc2O1 (stereo not given)
-1.1

Return the recorded activation value; entry: "CCOc1ccc(CCNC(=O)CSc2cc(=O)n(C)c3ccc(Cl)cc23)cc1OCC"
0.6

New cases:
Return the recorded activation value; entry: "Cc1ccc(S(=O)(=O)Nc2nc(C)cc(N/N=C/c3ccc(O)cc3)n2)cc1"
13.5

Return the recorded activation value; entry: "O=C(Nc1ccc2c(c1)OCO2)c1ccc(N2C(=O)c3ccccc3C2=O)cc1"
23.5

Return the recorded activation value; entry: "N#Cc1c(-c2ccc(F)cc2)cc(C2CC2)nc1SCC(=O)c1cccs1"
12.6

----------
- system name: Integrin beta-2 (Homo sapiens) + Integrin alpha-M (Homo sapiens) (UniProt P05107+P11215)
- experiment notes: enhancers of CD11b/CD18 adhesion to fibrinogen, primary screen, K562 cells, luminescence (AID 1499)
- conditions: ATPlite luminescence, at 10 µM, active compounds read high
Out of some 93,000 compounds screened, about 65 (0.07%) were called active. The sample as a whole holds a higher share of actives than the screen did.
measurement kind: activation (%)
Give the value in % but do not write % after it.

Return the recorded activation value; entry: "c1ccc(C2=Nc3cccc4cccc(c34)N2)cc1"
7

Return the recorded activation value; entry: "O=C(Cc1c[nH]c2ccccc12)N/N=C/c1cccc(F)c1"
1

Return the recorded activation value; entry: COc1ccc(C(CC(=O)Nc2ccc(C)cc2)NC(=O)C(F)(F)F)cc1 (stereo not given)
-0.4

Return the recorded activation value; entry: "O=C(/C=C/c1ccccc1)Nc1nnc(SCC(=O)c2ccc3ccccc3c2)s1"
59.6

Return the recorded activation value; entry: CCOc1ccc(NC(=O)COc2ccc(C(=O)NC3CCCc4ccccc43)cc2OC)cc1 (stereo not given)
37

New cases:
Return the recorded activation value; entry: "O=C(NC(=S)Nc1ccc(NC(=O)c2cccs2)cc1)c1ccc([N+](=O)[O-])cc1"
55.8

Return the recorded activation value; entry: "COc1cc(Cl)c(C)cc1NC(=O)COC(=O)c1cc(SC)ccc1Cl"
0.1
